Hey, just so you know, these numbers are from paper PMC5343027.

Protein target, amino acids: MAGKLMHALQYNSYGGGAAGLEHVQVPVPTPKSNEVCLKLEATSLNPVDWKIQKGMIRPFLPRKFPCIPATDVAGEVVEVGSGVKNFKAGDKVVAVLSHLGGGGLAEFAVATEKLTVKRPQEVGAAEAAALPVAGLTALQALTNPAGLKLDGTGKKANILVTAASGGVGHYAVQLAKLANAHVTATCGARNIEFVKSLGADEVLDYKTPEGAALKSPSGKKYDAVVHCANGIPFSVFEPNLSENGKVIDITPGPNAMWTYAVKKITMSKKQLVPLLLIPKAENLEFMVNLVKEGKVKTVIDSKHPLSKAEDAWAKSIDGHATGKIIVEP
pIC50: −log10 of the molar value.
readout.label: pIC50

• CCCCCC(=O)/C=C/C=C\CCCCCCCC(=O)O [13-KODE, 13-oxo-9(Z),11(E)-octadecadienoic acid] = 4.44
